Data origin: patent US20180057604A1

The reader will find reported Kd values listed item by item below.
- Assayed System: T1, human TfR extracellular domain with N-terminal His tag (human, UniProt P02786 89-760)
- T1 construct: Biotinylated in some assays; also called huTfR; HuTfR
- T1 sequence (P02786 89-760 G142S): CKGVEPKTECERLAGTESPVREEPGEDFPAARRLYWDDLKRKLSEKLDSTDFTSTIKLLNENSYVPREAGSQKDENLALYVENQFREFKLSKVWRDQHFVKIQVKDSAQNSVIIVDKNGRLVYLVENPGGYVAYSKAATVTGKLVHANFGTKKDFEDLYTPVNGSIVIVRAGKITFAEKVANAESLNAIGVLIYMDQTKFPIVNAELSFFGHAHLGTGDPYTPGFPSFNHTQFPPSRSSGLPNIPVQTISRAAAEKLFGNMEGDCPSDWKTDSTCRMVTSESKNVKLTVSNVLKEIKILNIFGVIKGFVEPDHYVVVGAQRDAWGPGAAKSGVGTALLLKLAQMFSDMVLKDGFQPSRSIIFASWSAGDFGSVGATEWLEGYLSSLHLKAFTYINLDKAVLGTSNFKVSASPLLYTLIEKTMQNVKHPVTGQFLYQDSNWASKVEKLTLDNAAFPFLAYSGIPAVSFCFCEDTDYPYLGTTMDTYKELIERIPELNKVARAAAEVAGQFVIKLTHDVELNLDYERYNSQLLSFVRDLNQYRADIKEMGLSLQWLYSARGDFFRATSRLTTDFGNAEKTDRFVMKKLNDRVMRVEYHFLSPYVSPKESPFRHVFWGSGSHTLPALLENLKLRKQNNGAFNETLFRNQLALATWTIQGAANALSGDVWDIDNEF
- Experiment: SPR, IgG
# output: bare number, implied unit nM

Below, each entry is followed by its recorded Kd result.
Binder: 15G11 (antibody, V domains shown, Mouse hybridoma antibody; also called clone 15G11) VH: QVQLQQPGAELVKPGASVKLSCKASGYTFTSYWMHWVKQRPGQGLEWIGEINPTNGRTNYIEKFKSKATLTVDKSSSTAYMQLSSLTSEDSAVYYCARGTRAYHYWGQGTSVTVSS VL: DIQMTQSPASLSVSVGETVTITCRASDNLYSNLAWYQQKQGKSPQLLVYDATNLADGVPSRFSGSGSGTQYSLKINSLQSEDFGTYYCQHFWGTPLTFGAGTKLELK
Unit Label: nM
Kd: 0.992
//
Binder: 7A4 (antibody, V domains shown, also called clone 7A4) VH: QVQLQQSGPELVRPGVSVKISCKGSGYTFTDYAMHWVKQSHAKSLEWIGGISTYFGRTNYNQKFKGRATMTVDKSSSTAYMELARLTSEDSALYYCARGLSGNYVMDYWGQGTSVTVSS VL: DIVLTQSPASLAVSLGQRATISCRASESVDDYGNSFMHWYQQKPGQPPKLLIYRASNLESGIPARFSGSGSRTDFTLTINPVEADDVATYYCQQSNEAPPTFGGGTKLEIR
Unit Label: nM
Kd: 0.206
//
Binder: 13D4 (antibody, V domains shown, Mouse hybridoma antibody; also called clone 13D4) VH: QVQLQQSGAELMKPGASVKISCKAAGYTFSNYWIEWVKQRPGHGLEWIGEILPGSGSTKYNEKFKGKATFTADTSSNTAYMQLSSLTSEDSAVYYCARRGGYGYDGEFAYWGQGTLVTVSA VL: DIQMTQTTSSLSASLGDRVTINCRAGQDITNYLNWFQQKPDGTVKLLIYYTSRLHSGVPSRFSGSGSGTDYSLTITNLEQEDIATYFCQQANTLPYTFGGGTKLEIK
Unit Label: nM
Kd: 9.5

Query: Name the reported Kd value associated with the binder 7A4 HC/8A2 LC (antibody, V domains shown, chimeric IgG; also called ch7A4/8A2) VH: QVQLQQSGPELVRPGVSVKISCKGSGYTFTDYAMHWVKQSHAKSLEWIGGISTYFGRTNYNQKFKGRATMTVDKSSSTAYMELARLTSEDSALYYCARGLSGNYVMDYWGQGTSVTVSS VL: DIVLTQSPASLAVSLGQRATISCRASESVDSYGNSFMHWYQQKPGQPPKLLIYRASNLESGIPARFSGSGSRTDFTLTINPVEADDVATYYCQQSNEGPPTFGGGTKLEIK
Reply: 0.112

Query: Would you kindly share the measured Kd for 16F6 (antibody, V domains shown, Mouse hybridoma antibody; also called clone 16F6) VH: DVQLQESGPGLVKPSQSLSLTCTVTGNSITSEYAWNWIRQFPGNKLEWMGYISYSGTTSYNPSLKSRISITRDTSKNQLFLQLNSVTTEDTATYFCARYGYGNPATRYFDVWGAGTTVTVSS VL: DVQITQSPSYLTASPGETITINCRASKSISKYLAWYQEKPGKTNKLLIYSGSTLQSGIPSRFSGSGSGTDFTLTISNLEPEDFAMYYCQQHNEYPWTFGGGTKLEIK ?
Reply: 2.07

Query: Entry 10D11 (antibody, V domains shown, Mouse hybridoma antibody; also called clone 10D11) VH: QVQLQQSGPELVRPGVAVKISCKGSGYKFIDYGMHWVKQSHTKSLQWIGVISPYSGKTNYSQKFKGKATMTVDKSSSTAYMELARLTSEDSAIYYCARGLSGNFVMDFWGQGTSVTVSS VL: DIVLTQSPASLAVSLGQRATISCRASESVDSYGPSFMHWYQQKPGQPPKLLIYRASNLESGIPARFSGSGSRTDFTLTINPVEADDVATYYCQHSNEDPPTFGGGTRLEIK : reported Kd = ?
Reply: 2.08

Query: Find the recorded Kd belonging to 1B12 (antibody, V domains shown, Mouse hybridoma antibody; also called clone 1B12) VH: EVKLVESGGGLVQPGGFLKLSCATSGFTFSDYYMYWVRQTPEKRLEWVASISNGGDNTYYPDTVKGRFTISRDNAKNTLYLQMSRLKSEDTAMYYCARQGALYDGYYRGAMDYWGQGTSVTVSS VL: QIVLTQSPAIMSASLGGRVTMTCTTSSSVPSSYFHWYQQKPGSSPKLWIYSTSNLASGVPARFSGSGSGTSYSLTISSMEAEDAATYYCHQYHRSPFTFGSGTKLEIK and report it.
Reply: 2.03

Query: # get_value(readout='Kd', item= 7G7 (antibody, V domains shown, Mouse hybridoma antibody; also called clone 7G7) VH: QVQLQQPGSELVRPGASVKLSCKASGYTFTSYWMHWVKQRHGQGLEWIGNIYPGSGSTKYDERFKSKGTLTVDTSSSTAYMHLSSLTSEDSAVYYCTRGGYDSRAWFAYWGQGTLVTVSA VL: DIVLTQSPASLAVSLGQRATISCRARQSVSTSSYSFMHWYRQKAGQPPKLLIKYASIQESGVPARFSGSGSGTDFTLNILPVEEEDTATYYCQHTWEIPFTFGSGTKLEIK )
Reply: 45.7

Query: What does the data say about its Kd? Entry: 16G4 (antibody, V domains shown, Mouse hybridoma antibody; also called clone 16G4) VH: QVQLQQPGAELVKPGASVKLSCKASGYTFTSYWMHWVKQRPGQGLEWIGEINPSNGRTNYNETFKSKATLTVDKSSSTAYMQLSSLTSEDSAVYYCARGTRAYHYWGQGTSVTVSS VL: DIQMTQSPASLSVSVGETVTITCRASDNIYSNLAWYQQKQGKSPQLLVYAVTNLADGVPSRFSGSGSGTQYSLKINSLQSEDFGSYYCQHFWGTPLTFGAGTKLELK
Reply: 3.4

Query: Dear colleague, I am looking for the recorded Kd of the following binder: 8A2 (antibody, V domains shown, Mouse hybridoma antibody; also called clone 8A2) VH: QVQLQQSGPELVRPGVSVKISCKGSGYTFTDYGMHWVKQSHAKSLEWIGVISPYSGRTNYNQNFKGKATMTVDKSSSTAYLELARLTSEDSAIYYCARGLSGNYVVDYWGQGTSVTVSS VL: DIVLTQSPASLAVSLGQRATISCRASESVDSYGNSFMHWYQQKPGQPPKLLIYRASNLESGIPARFSGSGSRTDFTLTINPVEADDVATYYCQQSNEGPPTFGGGTKLEIK
Reply: 0.179
